B1: Azoarcus group I ribozyme (parent)
chain: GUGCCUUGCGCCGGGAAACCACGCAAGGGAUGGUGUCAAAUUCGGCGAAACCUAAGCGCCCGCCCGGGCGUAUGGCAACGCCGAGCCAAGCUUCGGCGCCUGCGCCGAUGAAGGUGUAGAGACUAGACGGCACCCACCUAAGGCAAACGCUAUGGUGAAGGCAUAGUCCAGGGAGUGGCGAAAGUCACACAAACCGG

# Variants of: B1
# method: reverse-splicing fitness (ratio to wild type); higher = more active; in vitro selection; Mg2+ level not given
assay.endpoint: reverse-splicing fitness

C82G A120U A145U C150A C169G | 0.00252

Can you share its reverse-splicing fitness? I mean this variant: C82A A111C C150U C169U U176A
0.0165

Can you share its reverse-splicing fitness? I mean this variant: C82U A111U A120U A145C C169A
0.00225

Can you share its reverse-splicing fitness? I mean this variant: A111G A120U A145U C150G C169A U176A
0.00281

Can you share its reverse-splicing fitness? I mean this variant: C82A A111C A120G A145C C169U U176C
0.00921

Can you share its reverse-splicing fitness? I mean this variant: C82A A120U A145G C150A C169U U176G
0.003

Can you share its reverse-splicing fitness? I mean this variant: C82U A111U A120C C169A
0.00717

Can you share its reverse-splicing fitness? I mean this variant: C82A A145C C150G C169A U176A
0.00836

Can you share its reverse-splicing fitness? I mean this variant: A111G A120U A145G C150A C169U
0.0188

Can you share its reverse-splicing fitness? I mean this variant: A111U C150A
0.372

Can you share its reverse-splicing fitness? I mean this variant: A111U A120U C150A U176C
0.0318

Can you share its reverse-splicing fitness? I mean this variant: C82A A111G A120U C150U U176C
0.0108

Can you share its reverse-splicing fitness? I mean this variant: C82U A120U A145U C150U C169G U176C
0.00299

Can you share its reverse-splicing fitness? I mean this variant: A111C A120U A145C C150A C169G U176A
0.00305

Can you share its reverse-splicing fitness? I mean this variant: A111C A120G A145C C150U C169A U176A
0.0104

Can you share its reverse-splicing fitness? I mean this variant: C82U A111G A120G C150A C169G U176G
0.00435

Can you share its reverse-splicing fitness? I mean this variant: C82A A111C A120U A145U C150A U176A
0.00477

Can you share its reverse-splicing fitness? I mean this variant: C82G A120U A145U C150U C169A
0.00259

Can you share its reverse-splicing fitness? I mean this variant: C82A A120G A145C C150G C169U U176C
0.0123

Can you share its reverse-splicing fitness? I mean this variant: A111U A120C C150G U176G
0.00366

Can you share its reverse-splicing fitness? I mean this variant: C82U A111G A120U C150U U176C
0.0105

Can you share its reverse-splicing fitness? I mean this variant: C82A A111G A120G A145U C150G U176G
0.00378
